Source: ChEMBL document CHEMBL5058577

test system: Fibroblast; test: Multiplex assay against human fibroblast; assay type: toxicity, cell-based; settings: 24 h, 10 µM, compound concentration 10 uM, replicate 2
VALUE_TYPE: Total Cell Count
Answer with the value's number alone.

Examples with answers:
COMPOUND	VALUE_TYPE	VALUE_REPORTED
O=C(Nc1cc(-c2ccccc2)nn1-c1ccccc1F)c1ccc([N+](=O)[O-])cc1	Total Cell Count	147
COc1ccc2[nH]c(I)c(CCNC(C)=O)c2c1	Total Cell Count	149
O=c1ccc2ccc(OCCCCN3CCN(c4cccc5sccc45)CC3)cc2[nH]1	Total Cell Count	239
Cc1sc2c(c1C)C(c1ccc(Cl)cc1)=N[C@H](CC(=O)OC(C)(C)C)c1nnc(C)n1-2	Total Cell Count	165
C[C@H](NC(=O)CNC(=O)c1cccc(Cl)c1)c1ccccc1	Total Cell Count	118

Input COc1cc(Nc2ncc3c(n2)-c2ccc(Cl)cc2C(c2c(F)cccc2OC)=NC3)ccc1C(=O)O . Output Total Cell Count: 93

Input Cc1nn(C)c2nc(NNC(=O)Nc3cc(Cl)nc(Cl)c3)cc(C(C)C)c12 . Output Total Cell Count: 132
